Biological target: T1, GLP-1 receptor (rat), P32301
T1 chain: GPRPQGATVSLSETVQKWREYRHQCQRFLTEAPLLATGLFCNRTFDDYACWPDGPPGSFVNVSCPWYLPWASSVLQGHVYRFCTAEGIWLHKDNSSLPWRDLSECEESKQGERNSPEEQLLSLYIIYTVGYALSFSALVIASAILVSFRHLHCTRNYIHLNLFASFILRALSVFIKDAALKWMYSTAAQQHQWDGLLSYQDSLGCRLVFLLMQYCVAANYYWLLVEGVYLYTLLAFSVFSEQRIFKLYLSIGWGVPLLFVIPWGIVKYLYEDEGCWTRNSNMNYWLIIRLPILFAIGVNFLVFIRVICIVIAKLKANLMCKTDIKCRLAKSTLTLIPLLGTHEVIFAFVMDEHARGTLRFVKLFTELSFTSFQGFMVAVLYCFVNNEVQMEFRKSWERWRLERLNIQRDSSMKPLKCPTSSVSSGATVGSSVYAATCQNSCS
Assay: competition
Details: modification not given
measured_metric: IC50 (nM)
Could you give me the number in nM? Just the number is fine.

Consider the reported IC50 for these binders:
binder	unit_descriptor	meas_value
HSQGTFTSDYAKYLDARRAKEFIAWLVKGRG [G51]	nM	8.2
HSQGTFTSDYAAYLDARRAKEFIAWLVKGR [G56]	nM	6.6
HSQGTFTSDYARYLDARRAKEFIAWLVKGR [G55]	nM	9.8

# ---- query binder ----
stdin: Please give the documented IC50 of HSQGTFTSDYAKYLDAKKAKEFIAWLVKGRG [G58]
stdout: 6.9
